- assayed.system: hAhR (Homo sapiens)
- Construct: Stably integrated DRE-luciferase cell lines were generated by transducing the both cell lines with Cignal XRE luciferase reporter (Qiagen) lentiviral particles; endogenous in cells
- Sequence (P35869 11-848): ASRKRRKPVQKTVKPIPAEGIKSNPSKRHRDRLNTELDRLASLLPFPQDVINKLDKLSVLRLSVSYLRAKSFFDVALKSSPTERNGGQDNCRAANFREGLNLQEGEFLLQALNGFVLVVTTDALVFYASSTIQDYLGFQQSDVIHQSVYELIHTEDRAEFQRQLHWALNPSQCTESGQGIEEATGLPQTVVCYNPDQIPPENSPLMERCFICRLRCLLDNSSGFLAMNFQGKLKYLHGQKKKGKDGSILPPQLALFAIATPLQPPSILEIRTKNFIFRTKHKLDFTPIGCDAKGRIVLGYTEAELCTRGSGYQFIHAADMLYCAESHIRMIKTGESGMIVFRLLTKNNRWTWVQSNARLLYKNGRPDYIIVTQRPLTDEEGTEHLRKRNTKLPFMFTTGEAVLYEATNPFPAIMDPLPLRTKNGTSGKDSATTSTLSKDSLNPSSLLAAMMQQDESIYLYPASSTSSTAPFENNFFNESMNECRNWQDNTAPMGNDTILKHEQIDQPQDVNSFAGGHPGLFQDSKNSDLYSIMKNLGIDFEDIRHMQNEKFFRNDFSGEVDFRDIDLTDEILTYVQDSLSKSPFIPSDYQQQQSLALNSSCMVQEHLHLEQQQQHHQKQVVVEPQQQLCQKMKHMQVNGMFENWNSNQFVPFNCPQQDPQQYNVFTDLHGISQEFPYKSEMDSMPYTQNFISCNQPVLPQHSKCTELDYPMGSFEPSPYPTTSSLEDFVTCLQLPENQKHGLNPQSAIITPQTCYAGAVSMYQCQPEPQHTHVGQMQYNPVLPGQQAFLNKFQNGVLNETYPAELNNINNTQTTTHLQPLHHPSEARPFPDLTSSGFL
- procedure.details: AhR DRE-luciferase reporter transcriptional assay, antagonist mode (TCDD-induced)
- assay.setup: HEPG2 DRE-Luc cells, 3 nM TCDD, 24 hour incubation, relative IC50
Catalogue of molecules with associated IC50

Example entries begin here.
[[record]]
molecule = "Cc1cc(-c2ccc3cc(F)ccc3n2)ccc1NC(=O)C1CCOCC1 [Example 025]"
property_measured = "IC50"
reported = "1000 to 10000 nM"

[[record]]
molecule = "Cc1cc(-c2ccc3cc(F)ccc3n2)ccc1NC(=O)c1cnoc1C [Example 038]"
property_measured = "IC50"
reported = "500 to 1000 nM"

[[record]]
molecule = "Cc1ccc2nc(-c3ccc(NC(=O)c4ccnn4C)c(C)c3)ccc2c1 [Example 079]"
property_measured = "IC50"
reported = "500 to 1000 nM"

[[record]]
molecule = "Cc1cc(NC(=O)c2ccnn2C)ccc1-c1ccc2cc(F)ccc2n1 [Example 050]"
property_measured = "IC50"
reported = "500 to 1000 nM"

[[record]]
molecule = "Cn1nccc1C(=O)Nc1ccc(-c2ccc3cc(F)ccc3n2)cc1F [Example 066]"
property_measured = "IC50"
reported = "500 to 1000 nM"

[[record]]
molecule = "Cc1cc(-c2ccc3cc(C(F)(F)F)cc(C)c3n2)ccc1N(C)C(=O)c1ccnn1CCO [Example 201]"
property_measured = "IC50"
reported = "< 200 nM"

[[record]]
molecule = "Cc1cc(-c2ccc3cc(F)ccc3n2)cnc1NC(=O)c1ccnn1C [Example 042]"
property_measured = "IC50"
reported = "500 to 1000 nM"

[[record]]
molecule = "CNC(=O)c1cc(C(=O)N(C)c2ccc(-c3ncc4nc(C(F)(F)F)cc(C)c4n3)cc2C)ccn1 [Example 169]"
property_measured = "IC50"
reported = "< 200 nM"


Next, consider the following molecule.
// field: IC50; key: Cc1cc(-c2ccc3nc(C(F)(F)F)ccc3n2)ccc1NC(=O)c1ccnn1C [Example 102] ; value = < 200 nM
